assay: chemical genetic growth profiling, strain panel (AID 1159580);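 also: tested at 20 µM; growth read once vehicle control cultures reached saturation at 30 °C; 1 = growth at the plate median or of vehicle wells; lower values mean less growth of the strain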; conditions: S. cerevisiae deletion strains, growth OD, locus YKL160W, strain elf1
Out of some 5,500 compounds screened, about 2,000 (36%) were called active. Inconclusive results (about 18%) are left out. Rule as the data show it: active = normalized growth mostly below about 0.91 (no sharp cut-off); inconclusive = no clear call, values can overlap the other calls; inactive = mostly above about 0.92. The list shows a part of the results.
Possible outcomes: 1.0 (active), 0.0 (inactive)

>  <MOLECULE>
CCN(CC)C(=O)N1CCN(C)CC1

>  <CATEGORY>
0.0

$$$$
>  <MOLECULE>
CC[C@@]1(O)C[C@H](O[C@H]2C[C@H](N(C)C)[C@H](O)[C@H](C)O2)c2c(cc3c(c2O)C(=O)c2c(O)cccc2C3=O)[C@H]1C(=O)OC

>  <CATEGORY>
1.0

$$$$
>  <MOLECULE>
C=CCc1ccc(O)c(OC)c1

>  <CATEGORY>
0.0

$$$$
>  <MOLECULE>
CCCCCCCCCCC[C@@H](C[C@H]1OC(=O)[C@H]1CCCCCC)OC(=O)[C@@H](CC(C)C)NC=O

>  <CATEGORY>
0.0

$$$$
>  <MOLECULE>
NCCS(=O)(=O)O

>  <CATEGORY>
0.0

$$$$
>  <MOLECULE>
COc1ccc(-c2coc3cc(O)ccc3c2=O)c(O)c1O

>  <CATEGORY>
1.0

$$$$
>  <MOLECULE>
N=c1ccn2c(n1)OC1C(O)C(CO)OC12 (stereo not drawn)

>  <CATEGORY>
0.0

$$$$
>  <MOLECULE>
COc1ccc(-c2coc3cc(O)ccc3c2=O)c(OC)c1O

>  <CATEGORY>
0.0

$$$$
>  <MOLECULE>
CCn1cc(C(=O)O)c(=O)c2cc(F)c(N3CCNC(C)C3)c(F)c21 (stereo not drawn)

>  <CATEGORY>
0.0

$$$$
>  <MOLECULE>
COc1ccc(-c2coc3cc(O)ccc3c2=O)cc1

>  <CATEGORY>
0.0

$$$$
>  <MOLECULE>
c1ccc2c(c1)sc1ccccc12

>  <CATEGORY>
1.0

$$$$
>  <MOLECULE>
Cc1ccc(C(=O)Nc2ccc(S(=O)(=O)O)c3cc(S(=O)(=O)O)cc(S(=O)(=O)O)c23)cc1NC(=O)c1cccc(NC(=O)Nc2cccc(C(=O)Nc3cc(C(=O)Nc4ccc(S(=O)(=O)O)c5cc(S(=O)(=O)O)cc(S(=O)(=O)O)c45)ccc3C)c2)c1

>  <CATEGORY>
0.0

$$$$
>  <MOLECULE>
COc1ccc(C(=O)CC(=O)O)c2c1C=CC(C)(C)O2

>  <CATEGORY>
0.0

$$$$
>  <MOLECULE>
CN1C2C[C@H](OC(=O)[C@H](CO)c3ccccc3)C[C@H]1[C@@H](O)C2

>  <CATEGORY>
0.0

$$$$
>  <MOLECULE>
CC[C@@]1(O)C[C@H](O)c2c(cc3c(c2O)C(=O)c2c(O)ccc(O)c2C3=O)[C@H]1C(=O)OC

>  <CATEGORY>
1.0

$$$$
>  <MOLECULE>
COc1ccc(C(=O)O)cc1OC

>  <CATEGORY>
0.0

$$$$
>  <MOLECULE>
O=C1C(Cl)=C(Cl)C(=O)C(Cl)=C1Cl

>  <CATEGORY>
1.0

$$$$
>  <MOLECULE>
OCC(O)CN1CCN(c2ccccc2)CC1 (stereo not drawn)

>  <CATEGORY>
0.0

$$$$
